ASSAY INFO: blockers of DNA damage checkpoint Chk1 activation – imaging, HeLa, hydroxyurea, phospho-Chk1 nuclear intensity, primary screen (AID 1187); also: test concentration not given here
SETUP CONDITIONS: hydroxyurea-induced phospho-Chk1 immunofluorescence imaging, higher = more signal
So basically every entry gets a class from its z-score, ranges being lowest: < -0.3; middle: ≥ -0.3 and < -0.02; highest: ≥ -0.02

COMPOUND | CLASSIFICATION
CC(C)CNC(=O)[C@@]1(C)c2ccccc2C(=O)N(C(C)C)[C@H]1c1ccc(CO)cc1 | highest
COC(=O)[C@@]1(Cc2ccc(F)cc2)[C@H]2c3cc(C(=O)N4CCCC4)n(Cc4ccc(Cl)c(C(F)(F)F)c4)c3C[C@H]2CN1C(=O)c1ccccc1 | middle
COc1ccccc1CN1C(=O)c2ccccc2[C@](Cc2ccccc2I)(C(=O)NC2CC2)[C@@H]1c1ccc(CO)cc1 | highest
CCN(CC)c1ccc(N2CC=CC34O[C@@H]5/C=C\CCCOC(=O)C5[C@H]3C(=O)N(CCCO)[C@@H]4C2=O)cc1 (some centres undefined) | highest
CN(C)CCCCNC(=O)[C@@H]1C[C@@H]2C(=O)N[C@@H](CCCCN)C(=O)N2[C@@H]1c1cccc(OCCO)c1 | lowest
CN1C(=O)C2C=CC(C(O)c3ccccc3)N(NC(=O)OC(C)(C)C)C2C1=O (centres undefined) | highest
COCCOC(=O)N1C(=O)[C@@]2(c3cc(C#CC4(O)CCCCCC4)ccc31)[C@H](c1ccc(O)cc1)N1[C@H](c3ccccc3)[C@H](c3ccccc3)OC(=O)[C@H]1[C@@H]2C(=O)N1CCc2cc(OC)c(OC)cc2C1 | lowest
C=CCN1Cc2ccccc2C[C@@]2(COC(c3ccc(OCCCO)cc3)=N2)C1=O | middle
COC(=O)c1c2oc(c1C(=O)OC)C(=O)N[C@H](Cc1ccccc1)Cn1nncc1C1(CCCCC1)NC(=O)N[C@H](CO)CC2 | lowest
CN1C(=O)C2C=CC(C(O)c3ccc(Br)cc3)N(Nc3ccccc3)C2C1=O (centres undefined) | middle
CN(C)CCCC[C@@H]1NC(=O)[C@H]2C[C@@H](C(=O)NCCCCCNC(=O)CS)[C@@H](c3ccc(O)cc3)N2C1=O | highest
NC(=O)NCC#Cc1ccc2c(c1)[C@]1(C(=O)N2)[C@H](C(=O)NC[C@H](O)c2ccccc2)[C@H]2C(=O)O[C@H](c3ccccc3)[C@H](c3ccccc3)N2[C@@H]1c1ccccc1OCCO | lowest
[N-]=[N+]=NCc1ccccc1C[C@@]1(C(=O)NCc2ccccc2)N=C(c2ccc(OCCCO)cc2)O[C@@H]1c1ccccc1CN=[N+]=[N-] | lowest

###

composite z-score by entry:
TGT: Pro-neuregulin-1, membrane-bound isoform (Homo sapiens)
ASSAY INFO: small molecules binding neuregulin-1 protein – biochemical, small-molecule microarray, fluorescence 635/667, psychiatric disease protein project, primary screen (AID 1075);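 also: score combines 667 nm spot fluorescence with signal to noise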
SETUP CONDITIONS: NRG1 binding, 635 nm fluorescence, higher = more signal

STRUCTURE SMILES | composite z-score
COCCOC(=O)N1C(=O)[C@@]2(c3cc(C#Cc4ccc(OC)cc4)ccc31)[C@H](c1ccc(O)cc1)N1[C@H](c3ccccc3)[C@H](c3ccccc3)OC(=O)[C@H]1[C@@H]2C(=O)N1CCN(c2ncccn2)CC1 | 0.467
C=C(CCCC)/C(=C/C[C@H](OC(C)=O)c1ccc(CO)o1)c1cc(C(=O)OC)ccc1OC | 0.714
C=C(CCCC)/C(=C/C[C@@H](OC(=O)c1ccncc1)c1ccc(CO)o1)c1cc(C(=O)OC)ccc1OC | 1.52
COc1ccc(C#Cc2ccc3c(c2)[C@]2(C(=O)N3)[C@H](c3ccc(OCCO)cc3)N3[C@H](c4ccccc4)[C@H](c4ccccc4)OC(=O)[C@H]3[C@@H]2C(=O)Nc2nc3ccccc3s2)cc1 | 2.24
